The reported numbers originate from patent US11104661B1.

target: α4β7 (Homo sapiens, UniProt P13612+P26010); construct: endogenous in cells; host or cells: RPMI 8866 cells; experiment: Cell-based MAdCAM-1 ligand binding assay (LBA) on RPMI 8866 cells (Example 6); conditions: MAdCAM-1-Fc Dylight 650, 3 mM manganese chloride, flow cytometry, Table 4 comparative compounds, read-out: LB Assay (Example 6)
Sequence (P13612 34-1032): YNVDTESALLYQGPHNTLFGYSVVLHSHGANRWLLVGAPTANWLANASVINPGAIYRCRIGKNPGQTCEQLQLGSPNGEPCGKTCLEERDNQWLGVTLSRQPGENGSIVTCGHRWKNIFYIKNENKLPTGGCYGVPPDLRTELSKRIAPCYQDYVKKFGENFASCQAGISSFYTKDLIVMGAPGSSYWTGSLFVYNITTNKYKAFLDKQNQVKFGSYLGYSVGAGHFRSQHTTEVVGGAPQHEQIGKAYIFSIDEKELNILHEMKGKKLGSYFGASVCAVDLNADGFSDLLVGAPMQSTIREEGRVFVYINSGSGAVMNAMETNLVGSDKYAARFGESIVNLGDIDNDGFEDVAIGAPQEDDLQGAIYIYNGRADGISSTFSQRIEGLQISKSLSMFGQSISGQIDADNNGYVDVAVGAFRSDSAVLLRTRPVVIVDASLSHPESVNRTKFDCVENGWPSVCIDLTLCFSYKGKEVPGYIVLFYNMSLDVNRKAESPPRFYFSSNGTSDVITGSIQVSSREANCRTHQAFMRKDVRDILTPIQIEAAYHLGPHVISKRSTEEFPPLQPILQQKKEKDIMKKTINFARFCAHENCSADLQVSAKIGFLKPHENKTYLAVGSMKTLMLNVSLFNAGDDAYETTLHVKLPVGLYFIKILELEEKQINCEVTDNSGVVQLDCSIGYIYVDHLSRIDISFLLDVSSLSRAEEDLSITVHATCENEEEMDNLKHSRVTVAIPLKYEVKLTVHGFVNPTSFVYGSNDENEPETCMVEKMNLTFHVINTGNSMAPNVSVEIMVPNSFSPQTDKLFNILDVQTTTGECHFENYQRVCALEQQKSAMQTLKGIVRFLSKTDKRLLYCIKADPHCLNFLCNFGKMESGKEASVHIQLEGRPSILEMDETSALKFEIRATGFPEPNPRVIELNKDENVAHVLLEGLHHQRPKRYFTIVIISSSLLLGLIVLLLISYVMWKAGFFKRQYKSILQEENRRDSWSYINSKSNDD
Sequence (P26010 20-798): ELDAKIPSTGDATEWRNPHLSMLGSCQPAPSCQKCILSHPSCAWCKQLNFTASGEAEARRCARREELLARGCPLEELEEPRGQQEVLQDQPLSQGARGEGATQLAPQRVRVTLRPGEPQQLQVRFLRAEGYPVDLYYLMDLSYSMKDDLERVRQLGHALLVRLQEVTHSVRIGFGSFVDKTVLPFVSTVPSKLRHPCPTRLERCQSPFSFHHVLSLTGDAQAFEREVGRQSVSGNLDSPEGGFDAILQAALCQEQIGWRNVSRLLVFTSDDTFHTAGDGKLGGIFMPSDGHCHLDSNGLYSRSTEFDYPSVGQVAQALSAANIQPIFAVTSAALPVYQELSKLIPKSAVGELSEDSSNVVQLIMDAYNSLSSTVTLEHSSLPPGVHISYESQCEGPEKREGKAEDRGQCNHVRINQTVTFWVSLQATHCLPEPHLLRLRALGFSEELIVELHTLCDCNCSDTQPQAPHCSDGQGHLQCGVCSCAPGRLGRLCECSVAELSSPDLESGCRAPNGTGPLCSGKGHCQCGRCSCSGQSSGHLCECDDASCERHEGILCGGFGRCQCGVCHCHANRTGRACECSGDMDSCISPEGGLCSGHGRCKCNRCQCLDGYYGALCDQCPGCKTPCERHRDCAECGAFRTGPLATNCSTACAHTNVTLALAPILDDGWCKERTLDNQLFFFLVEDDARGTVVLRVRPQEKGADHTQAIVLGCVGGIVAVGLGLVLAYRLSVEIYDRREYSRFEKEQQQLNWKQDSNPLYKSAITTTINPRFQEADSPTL

{"molecule": "Cc1cccc(C)c1-c1cncc([C@H](CC(=O)O)NC(=O)[C@H](CC(C)C)N2CC[C@@H](C(F)(F)F)CC2=O)c1", "IC50": "10 to 500 nM"}
{"molecule": "Cc1cccc(C)c1-c1cccc([C@H](CC(=O)O)NC(=O)[C@H](CC(C)C)n2cc(CN3CC[C@@H](F)C3)ccc2=O)c1", "IC50": "< 10 nM"}
{"molecule": "Cc1cccc(C)c1-c1cccc([C@H](CC(=O)O)NC(=O)[C@H](CC(C)C)n2cc(CN3CC(F)C3)ccc2=O)c1 [drawing 594]", "IC50": "< 10 nM"}
{"molecule": "Cc1ccc([C@@H](C(=O)N[C@@H](CC(=O)O)c2cncc(-c3c(C)cccc3C)c2)N2CC(C)CCC2=O)cc1 (stereo partly drawn)", "IC50": "10 to 500 nM"}
{"molecule": "Cc1ccccc1-c1cc([C@H](CC(=O)O)NC(=O)[C@H](CC(C)C)n2ccc(C(F)(F)F)cc2=O)cnc1C", "IC50": "10 to 500 nM"}
{"molecule": "Cc1cccc(C)c1-c1cccc([C@H](CC(=O)O)NC(=O)[C@H](CC(C)C)n2ccc(CCN(C)C)cc2=O)c1", "IC50": "< 10 nM"}
{"molecule": "CC(C)C[C@@H](C(=O)N[C@@H](CC(=O)O)c1ccc(-c2ccc(F)cc2)cc1)n1cc(CCN2CC(F)C2)cc(F)c1=O", "IC50": "10 to 500 nM"}
{"molecule": "Cc1cccc(C)c1-c1cccc([C@H](CC(=O)O)NC(=O)[C@H](CC(C)C)n2cc(CCN(C)C)ccc2=O)c1", "IC50": "< 10 nM"}
{"molecule": "Cc1ccccc1-c1cccc([C@H](CC(=O)O)NC(=O)[C@H](CC(C)C)n2cccc(C)c2=O)c1", "IC50": "10 to 500 nM"}
{"molecule": "CC(C)C[C@@H](C(=O)N[C@@H](CC(=O)O)c1ccc(-c2ccc(F)cc2)cc1)n1cc(CCN(C)C)c(C(F)(F)F)cc1=O", "IC50": "10 to 500 nM"}
{"molecule": "Cc1cccc(C)c1-c1cccc([C@H](CC(=O)O)NC(=O)[C@H](CC(C)C)n2cc(CN3CC(F)C3)ccc2=O)c1 [drawing 599]", "IC50": "< 10 nM"}
{"molecule": "Cc1ccn([C@@H](CC(C)C)C(=O)N[C@@H](CC(=O)O)c2cncc(-c3c(C)cccc3C)c2)c(=O)c1", "IC50": "< 10 nM"}
{"molecule": "Cc1cccc(C)c1-c1cncc([C@H](CC(=O)O)NC(=O)[C@H](CC(C)C)n2cc(CN3CC(F)C3)ccc2=O)c1", "IC50": "< 10 nM"}
{"molecule": "Cc1cccc(C)c1-c1cccc([C@H](CC(=O)O)NC(=O)[C@H](CC(C)C)n2cc(CN3CC(F)C3)ccc2=O)c1 [drawing 585]", "IC50": "< 10 nM"}
{"molecule": "CC(C)C[C@@H](C(=O)N[C@@H](CC(=O)O)c1ccc(-c2ccccc2)cc1)n1cc(CCN(C)C)c(C(F)(F)F)cc1=O", "IC50": "10 to 500 nM"}
